Values from patent US20240158412A1

Let's go through some IC50 measurements on USP7 (Homo sapiens, UniProt Q93009) together.
Sequence (Q93009 whole entry): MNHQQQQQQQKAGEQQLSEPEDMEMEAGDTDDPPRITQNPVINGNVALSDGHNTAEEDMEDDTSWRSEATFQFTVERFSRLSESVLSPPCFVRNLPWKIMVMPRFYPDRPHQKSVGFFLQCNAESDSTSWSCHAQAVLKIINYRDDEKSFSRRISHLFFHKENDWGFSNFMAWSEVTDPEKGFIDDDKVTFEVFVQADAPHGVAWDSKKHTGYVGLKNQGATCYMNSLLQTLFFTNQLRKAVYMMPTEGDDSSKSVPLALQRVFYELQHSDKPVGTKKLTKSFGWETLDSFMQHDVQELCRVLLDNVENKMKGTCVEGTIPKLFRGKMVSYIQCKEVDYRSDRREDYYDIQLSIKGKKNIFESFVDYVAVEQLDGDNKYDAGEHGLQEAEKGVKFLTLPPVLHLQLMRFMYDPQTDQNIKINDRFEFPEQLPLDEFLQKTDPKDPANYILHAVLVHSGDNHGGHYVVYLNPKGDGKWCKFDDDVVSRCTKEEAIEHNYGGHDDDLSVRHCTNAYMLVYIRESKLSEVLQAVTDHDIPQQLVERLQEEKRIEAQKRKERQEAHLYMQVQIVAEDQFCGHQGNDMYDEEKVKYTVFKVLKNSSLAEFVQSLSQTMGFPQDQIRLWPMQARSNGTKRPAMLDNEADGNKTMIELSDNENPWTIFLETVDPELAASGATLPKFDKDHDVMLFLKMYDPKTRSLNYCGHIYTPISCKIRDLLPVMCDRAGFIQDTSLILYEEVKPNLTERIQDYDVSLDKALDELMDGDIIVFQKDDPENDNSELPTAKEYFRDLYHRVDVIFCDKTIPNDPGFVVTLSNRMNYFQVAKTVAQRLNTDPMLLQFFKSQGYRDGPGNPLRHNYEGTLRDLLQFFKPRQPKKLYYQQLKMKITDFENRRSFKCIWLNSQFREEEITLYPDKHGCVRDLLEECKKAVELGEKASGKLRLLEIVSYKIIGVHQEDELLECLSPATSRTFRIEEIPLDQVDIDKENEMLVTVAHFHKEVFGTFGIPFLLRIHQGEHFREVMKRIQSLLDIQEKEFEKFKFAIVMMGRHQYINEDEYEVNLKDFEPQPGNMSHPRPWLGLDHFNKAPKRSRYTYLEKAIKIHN

Some compounds with recorded IC50:
- compound: "C[C@H]1CCc2cc(Cl)cc(-c3ccnc4cc(CN5C(=O)CCC5=O)sc34)c2N1[C@@H]1CCNC1 (single isomer, unassigned) [Example 44a]"
  IC50: "0.01 to 0.1 µM"
- compound: "Cc1cnn(Cc2cc3nccc(-c4cc(C#N)cc5c4N(C4CNC(C)(C)C4)CCC5)c3s2)c(=O)c1 (single isomer, unassigned) [Example 120a]"
  IC50: "< 0.01 µM"
- compound: "C[C@@]1(C(=O)O)C[C@H](N2CCCc3cc(Cl)cc(-c4ccnc5cc(CN6C(=O)CCC6=O)sc45)c32)CN1"
  IC50: "< 0.01 µM"

QUERY: Jot down IC50 (USP7 (Homo sapiens, UniProt Q93009)) of O=C1CCC(=O)N1Cc1cc2nccc(-c3cc(C(F)(F)F)cc4c3N(C3CNC5(CCC5)C3)CCO4)c2s1 (single isomer, unassigned) [Example 175a] .
RESULT: 0.101 to 1 µM

QUERY: Provide IC50, system USP7 (Homo sapiens, UniProt Q93009), entry O=C1CCC(=O)N1Cc1cc2nccc(-c3cc(Cl)cc4c3N([C@H]3CNC5(CCC5)C3)CCC4)c2s1 (single isomer, unassigned) [Example 139a]
RESULT: 0.01 to 0.1 µM

QUERY: Param request: IC50 | system USP7 (Homo sapiens, UniProt Q93009) | item `O=c1cc(C2CC2)cnn1Cc1cc2nccc(-c3cc(Cl)cc4c3N([C@@H]3CN[C@H](CO)C3)CCC4)c2s1`
RESULT: < 0.01 µM

QUERY: Recall the reported IC50 of `O=c1cc(C2CC2)cnn1Cc1cc2nccc(-c3cc(Cl)cc4c3N([C@@H]3CN[C@@H](CO)C3)CCC4)c2s1` when tested on USP7 (Homo sapiens, UniProt Q93009).
RESULT: < 0.01 µM

====

Let's go through some recorded IC50 values for USP7 (Homo sapiens) together.

QUERY: Fill in reported IC50 for this entry: O=C1CCC(=O)N1Cc1cc2nccc(-c3cc(Cl)cc4c3N(C3CNC3)C[C@@H]3C[C@H]43)c2s1 (single isomer, unassigned) [Example 43a]
RESULT: > 1000 nM

QUERY: Supply reported IC50 belonging to this molecule: N#Cc1cc2c(c(-c3ccnc4cc(CN5C(=O)C6CC6C5=O)sc34)c1)N([C@H]1CNC3(CCCC3)C1)CCC2 (stereo partly drawn) [Example 178a]
RESULT: 101 to 1000 nM

====

Biological target: USP7 (Homo sapiens)
assayMetric: IC50

- compound: "O=c1ccn(C2CC2)c(=O)n1Cc1cc2nccc(-c3cc(Cl)cc4c3N([C@@H]3CNC5(CCC5)C3)CCC4)c2s1 [Example 148]"
  systemTested: "USP7 (Homo sapiens)"
  IC50: "< 10 nM"
- compound: "CC1(C)C2C(=O)N(Cc3cc4nccc(-c5cc(Cl)cc6c5N(C5CNC5)CCC6)c4s3)C(=O)C21 (centres unmarked) [Example 14]"
  systemTested: "USP7 (Homo sapiens)"
  IC50: "10 to 100 nM"
- compound: "O=c1ccn(C2CC(F)(F)C2)c(=O)n1Cc1cc2nccc(-c3cc(Cl)cc4c3N([C@@H]3CNC5(CCC5)C3)CCC4)c2s1 [Example 146]"
  systemTested: "USP7 (Homo sapiens)"
  IC50: "< 10 nM"

QUERY: Look up and report measured IC50 (USP7 (Homo sapiens)) for the following compound: O=C1CCC(=O)N1Cc1cc2nccc(-c3cc(Cl)cc4c3N([C@H]3CCNC3)C[C@H]3C[C@@H]43)c2s1 (single isomer, unassigned) [Example 113d]
RESULT: < 10 nM

QUERY: For USP7 (Homo sapiens), give IC50 of the listed compound: CC(=O)N1CC(N2CCCc3cc(Cl)cc(-c4ccnc5cc(CN6C(=O)CCC6=O)sc45)c32)C1 [Example 8]
RESULT: 101 to 1000 nM

QUERY: Send back USP7 (Homo sapiens) IC50 of COC(=O)[C@]1(C)C[C@@H](N2CCCc3cc(Cl)cc(-c4ccnc5cc(CN6C(=O)CCC6=O)sc45)c32)CN1 (single isomer, unassigned) [Example 202] only.
RESULT: 10 to 100 nM

QUERY: Please report the measured IC50 for O=C1CCC(=O)N1Cc1cc2nccc(-c3cc(Cl)cc4c3N(C3CCNCC3)CCC4)c2s1 [Example 45] tested on USP7 (Homo sapiens).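 Further: fluorescence intensity readout of USP7 enzymatic activity, reaction incubated 90 min at room temperature.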
RESULT: 10 to 100 nM

QUERY: Provide measured IC50 on USP7 (Homo sapiens) for CC1(c2cnn(Cc3cc4nccc(-c5cc(C#N)cc6c5N([C@@H]5CN[C@@H](CO)C5)C[C@@H]5C[C@H]65)c4s3)c(=O)c2)CC1 (single isomer, unassigned) [Example 195b] please.
RESULT: < 10 nM
